Source listed as PubChem BioAssay AID1851.

biological target: Cytochrome P450 1A2 (Homo sapiens) (UniProt P05177); experiment: Cytochrome panel assay with activity outcomes; details: recombinant CYP, pro-luciferin dealkylation, luminescence, p450-cyp1a2; series mostly up to 57.1 µM
Sequence (P05177 whole entry, looked up): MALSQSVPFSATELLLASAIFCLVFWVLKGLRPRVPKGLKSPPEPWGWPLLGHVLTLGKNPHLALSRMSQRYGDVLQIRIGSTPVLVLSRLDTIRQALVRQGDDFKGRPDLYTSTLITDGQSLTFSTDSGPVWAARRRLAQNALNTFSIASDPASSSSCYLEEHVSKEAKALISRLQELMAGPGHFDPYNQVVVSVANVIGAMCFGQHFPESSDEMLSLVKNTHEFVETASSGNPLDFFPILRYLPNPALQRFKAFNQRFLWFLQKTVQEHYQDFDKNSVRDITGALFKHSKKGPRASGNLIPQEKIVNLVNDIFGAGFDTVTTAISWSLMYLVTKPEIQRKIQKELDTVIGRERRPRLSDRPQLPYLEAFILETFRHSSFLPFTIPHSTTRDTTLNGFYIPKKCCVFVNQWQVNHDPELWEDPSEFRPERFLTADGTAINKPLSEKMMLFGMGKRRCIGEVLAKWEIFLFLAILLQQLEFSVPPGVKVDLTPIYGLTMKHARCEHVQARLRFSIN
Among all 16,000 compounds or so, about 5,700 (36%) were called active. Not shown: some 24% with an inconclusive outcome. Calls follow the shape of the dose curve; as a rule, active = well fitted curve in the direction sought with a large enough effect; inconclusive = small, poorly fitted or top-dose-only effect, or effect the other way; inactive = no such curve, though single readings can be large or run the other way. Some of the results follow.
Allowed answers: active, inactive

Query: How was `COc1cccc(-c2ccc3ncnc(NCc4cccs4)c3c2)c1` classified in this test?
Reply: active

Query: Now this one: `C#CCN(C)Cc1ccccc1`
Reply: inactive

Query: One more molecule: `CCOC(=O)c1c(C)nc2sc3c(=O)n(-c4ccc(OC)cc4)nnc3c2c1-c1ccc(OC)cc1`
Reply: inactive

Query: Now consider COC(=O)CCSc1cc([N+](=O)[O-])cc2c1c(C1OCCS1)nn2-c1ccccc1 (centres undefined) and answer again.
Reply: active

Query: Another molecule to check: Cc1cccc(C)c1NC(=O)CCN1C(=O)C2C3CCC(C3)C2C1=O (centres undefined)
Reply: inactive

Query: Note, next up: CC(=O)Nc1ccc(NCN2C(=O)C3C4CCC(C4)C3C2=O)cc1 (centres undefined)
Reply: inactive

Query: Queued: COC(=O)C1C(=O)C2=C(CC1C)NC(=O)CC2c1cccc(C)c1 (centres undefined)
Reply: inactive

Query: Also check `CC1=C(C(=O)O)N2C(=O)[C@@H](NC(=O)[C@@H](N)C3=CCC=CC3)[C@@H]2SC1`
Reply: inactive

Query: Same question for `CCOc1ccc2c(c1)nc(SCC(=O)c1ccc(Br)s1)n2C` please.
Reply: active

Query: Next molecule up: `C=C(NC(=O)C(=C)NC(=O)c1csc(C2=N[C@@H]3c4csc(n4)[C@@H]4NC(=O)c5csc(n5)[C@@H]([C@](C)(O)[C@H](C)O)NC(=O)[C@@H]5CSC(=N5)/C(=C/C)NC(=O)[C@@H]([C@H](C)O)NC(=O)c5csc(n5)[C@]3(CC2)NC(=O)[C@@H](C)NC(=O)C(=C)NC(=O)[C@@H](C)NC(=O)[C@@H]([C@@H](C)CC)N[C@H]2C=Cc3c([C@H](C)O)cc(nc3[C@@H]2O)C(=O)O[C@H]4C)n1)C(N)=O`
Reply: inactive

Query: Continue with `N#Cc1cc(-c2ccc(Cl)cc2)cnc1Sc1ccccc1`
Reply: active

Query: Proceed to `CCOC(=O)N1CCN(C(=O)c2ccc3nc(SCc4ccc(F)cc4)n(C)c3c2)CC1`
Reply: inactive

Query: What do you get for `CC(C)(C)NC[C@H](O)COc1cccc2c1CCCC2=O` ?
Reply: inactive

Query: `CCOCC(=O)Nc1cc(C(=O)Nc2ccccc2)ccc1Cl` , same question.
Reply: active

Query: Same for `COC(=O)c1ccc(Cl)c(NC(=O)c2ccc(-c3ccccc3)cc2)c1`
Reply: inactive

Query: Query `O=C(c1csnn1)N1CCC2(CC1)CN(c1ccncc1)C2` next
Reply: inactive

Query: # repeat for `CCOCC(=O)Nc1cc(C(=O)Nc2cccc(C)c2C)ccc1Cl`
Reply: active

Query: Also need `CCOC(=O)c1nc2sc(C)c(C)c2c(=O)[nH]1` , thanks.
Reply: active

Query: Also check `CS(=O)(=O)N1CCC[C@@]2(CCN(c3ccccn3)C2)C1`
Reply: inactive

* * *

biological target: Cytochrome P450 1A2 (Homo sapiens); assay: Cytochrome panel assay with activity outcomes; settings: recombinant CYP, pro-luciferin dealkylation, luminescence, p450-cyp1a2; series mostly up to 57.1 µM
The whole screen tested about 16,000 compounds, of which about 5,700 (36%) were called active. Roughly 24% stayed inconclusive and do not appear here. Calls come from the whole dose curve; as a rule, active = well fitted curve in the direction sought with a large enough effect; inconclusive = small, poorly fitted or top-dose-only effect, or effect the other way; inactive = no such curve, though single readings can be large or run the other way. Some of the results follow.
Respond only with the outcome that fits, drawn from 1 = active, 0 = inactive

Query: Recorded test call requested for `O=c1ccn(-c2cccc(C(F)(F)F)c2)nc1-c1ccn(-c2ccccc2F)n1`
Reply: 1

Query: Same for `O=C(N/N=C/c1ccc(Cl)cc1Cl)c1cccc(F)c1`
Reply: 1

Query: Now the compound `O=C(N/N=C/c1ccc(Cl)cc1)Nc1ccccc1`
Reply: 1

Query: Moving on to `CCN1CCN(C(=O)N[C@H](C(=O)N[C@@H]2C(=O)N3[C@@H]2SC(C)(C)[C@@H]3C(=O)O)c2ccccc2)C(=O)C1=O`
Reply: 0

Query: // next record `O=C(Nc1ccc(N=Nc2ccccc2)cc1)c1ccc(Cl)cc1Cl`
Reply: 0
